Test system: 3-dpf Zebrafish Embryos Challenged with LPS (P. aeruginosa 60 μg/mL)
Assay type: in vivo, Danio rerio
experimental parameters: 3-dpf embryos; P. aeruginosa LPS 60 μg/mL; compound 10 μM; 24 hours; n=16
Structures can show the parent of a compound that is named as a salt.
Returns y if the recorded Percent Rescue (Mort + Tail Edema) is greater than or equal to 60%, and n otherwise.

Please review the entries below; each comes with its answer.
| compound | label |
| --- | --- |
| CNCC[C@H](Oc1cccc2ccccc12)c1cccs1 [Compound 386, Duloxetine (hydrochloride)] | n |
| O=C(Nc1nc(-c2cc(Cl)cs2)c(N2CCN(C3CCCCC3)CC2)s1)c1cnc(N2CCC(C(=O)O)CC2)c(Cl)c1 [Compound 31, Avatrombopag] | y |
| O=C1Cc2cc(CCN3CCN(c4nsc5ccccc45)CC3)c(Cl)cc2N1 [Compound 361, Ziprasidone] | y |

Let's switch to this compound now.
Q: Kindly determine if Percent Rescue (Mort + Tail Edema) recorded for OCCOCCN1CCN(C2=Nc3ccccc3Sc3ccccc32)CC1 [Compound 11, Quetiapine (hemifumarate)] is above or exactly 60%.
Ans: y

----------
# Percent Rescue (Mort + Tail Edema) per entry
System: 3-dpf Zebrafish Embryos Challenged with LPS (P. aeruginosa 60 μg/mL)
Format: in vivo, Danio rerio
experimental parameters: 3-dpf embryos; P. aeruginosa LPS 60 μg/mL; compound 10 μM; 24 hours; n=16
Where a name gives a salt, the structure may show the parent alone.
Value expressed in %; do not type the unit.

Some solved cases for reference:
| compound | property label | recorded measurement |
| --- | --- | --- |
| Cc1cc(Nc2ncc(Cl)c(Nc3ccccc3S(=O)(=O)C(C)C)n2)c(OC(C)C)cc1C1CCNCC1 [Compound 378, Ceritinib dihydrochloride] | Percent Rescue (Mort + Tail Edema) | 75 |
| CC(C)NCC(O)COc1cccc2[nH]ccc12 (stereo not shown) | Percent Rescue (Mort + Tail Edema) | 56 |
| CN1CCc2c(c3ccccc3n2Cc2ccccc2)C1 [Compound 318, Mebhydrolin] | Percent Rescue (Mort + Tail Edema) | 56 |
| CN(C)CCOC(C)(c1ccccc1)c1ccc(Cl)cc1 (stereo not shown) | Percent Rescue (Mort + Tail Edema) | 50 |
| O=C(NCCN1CCOCC1)c1ccc(Cl)cc1 [Compound 5, Moclobemide] | Percent Rescue (Mort + Tail Edema) | 75 |

Q: Please report the recorded Percent Rescue (Mort + Tail Edema) for O=C1NCC2(CCN(CCc3ccccc3)CC2)O1 [Compound 17, Fenspiride hydrochloride] .
Ans: 63

Q: Entry under review: C[C@H]1N=C(N(C)C)N=C(N)N1 [Compound 317, Imeglimin (hydrochloride)] . Reported Percent Rescue (Mort + Tail Edema)?
Ans: 50

Q: Percent Rescue (Mort + Tail Edema) lookup needed for N[C@@H]1C[C@H]1c1ccccc1.N[C@@H]1C[C@H]1c1ccccc1.O=S(=O)(O)O [Compound 7, Tranylcypromine (hemisulfate)] , thanks.
Ans: 88

Q: Find the recorded Percent Rescue (Mort + Tail Edema) belonging to CC(C)(C)c1ccc(C(O)CCCN2CCC(C(O)(c3ccccc3)c3ccccc3)CC2)cc1 (stereo not shown) and report it.
Ans: 75

Q: Sample CNS(=O)(=O)CCc1ccc2[nH]cc(C3CCN(C)CC3)c2c1 [Compound 438, Naratriptan (hydrochloride)] — what was its Percent Rescue (Mort + Tail Edema)?
Ans: 50

Q: Reported Percent Rescue (Mort + Tail Edema) for `CN1c2c(nc(N)[nH]c2=O)NC[C@@H]1CNc1ccc(C(=O)N[C@@H](CCC(=O)O)C(=O)O)cc1` : what is it?
Ans: 63

Q: # Percent Rescue (Mort + Tail Edema) lookup, item C#CCN[C@H]1CCc2ccccc21.CS(=O)(=O)O [Compound 314, Rasagiline mesylate]
Ans: 63

Q: Consider the compound CCN(CC)CCNC(=O)c1c(C)[nH]c(/C=C2\C(=O)Nc3ccc(F)cc32)c1C [Compound 354, Sunitinib (Malate)] and give its measured Percent Rescue (Mort + Tail Edema).
Ans: 88

----------
System: 3-dpf Zebrafish Embryos Challenged with LPS (P. aeruginosa 60 μg/mL)
Assay type: in vivo, Danio rerio
experimental parameters: 3-dpf embryos; P. aeruginosa LPS 60 μg/mL; compound 10 μM; 24 hours; n=16
Structures can show the parent of a compound that is named as a salt.
compounds and their reported Percent Rescue (Mort + Tail Edema)
Please respond with the number in % and leave the unit unwritten.

| compound | target | Percent Rescue (Mort + Tail Edema) (%) |
| --- | --- | --- |
| Clc1ccc(CCCOCCCN2CCCCC2)cc1 [Compound 435, Pitolisant] | 3-dpf Zebrafish Embryos Challenged with LPS (P. aeruginosa 60 μg/mL) | 94 |
| C[C@H](N)[C@H](O)c1ccc(O)c(O)c1 [Compound 10, Levonordefrin] | 3-dpf Zebrafish Embryos Challenged with LPS (P. aeruginosa 60 μg/mL) | 63 |

# context switch: different compound, same Percent Rescue (Mort + Tail Edema)
Q: Percent Rescue (Mort + Tail Edema) for CCN(CC)CC(=O)Nc1c(C)cccc1C [Compound 549, Lidocaine hydrochloride] ?
Ans: 56

meta.source: patent US20250085273A1
